Exercise: for every item that follows, state its recorded Enzyme Activity Endpoint Assay: Fc.
# Target system: pooled human IgG
State the answer as a number, implicitly in ng/µL.

Query: For the protein shown here, PRT-4 (protein) MANQEIRYSEVTPYHVTSVWTKGVTPPANFTQGEDVFHAPYVANQGWYDITKTFNGKDDLLCGAATAGNMLHWWFDQNKEQIERYLKEHPEKQKINFNGEQMFDVKEAIDTKDSQLDSKLFEYFKEKAFPYLSTKHLGVFPDHVIDMFINGYRLSLTNHGPTPVKEGSKDPRGGIFDAVFTRGDQSKLLTSRHDFKEKNLKEISDLIKKELTEGKALALSHTYANVRINHVINLWGADFDSNGNLKAIYVTDSDSNASIGMKKYFVGVNSAGKVAISAKEIKEDNIGAQVLGLFTLSTGQDIWNQTN , give the reported Enzyme Activity Endpoint Assay: Fc.
Response: 97

Query: For the protein shown here, PRT-551 (protein) MANQEIRYSEETPSTITSVWTKGVTPPTDFIQNEDVLHAPYIANQGWYDITKTFNGKDDLLCGAATAGNMLHWWFDQNKEEIENYLKKHPEKQKINFNGEQMFDVKEAIDTKDSQTDSALFEYFKDKAFPYLSTKHLGVFPDHVIDMFINGYRLSLTNHGPTPVKRGTKDPRGGIFDAVFTRGDQSKLLTARHDFKEKTLNEISDLIKQELTEGKALGLSHTYANVRINHVINLWGADFNSEGNLEAIYVTDSDSNASIGMKKYYVGVNAAGKVAISAKEIEGDNIGAQVLGLFTLSTGQDIWNQTNLEHHHHHH , give the reported Enzyme Activity Endpoint Assay: Fc.
Response: 217

The origin of these recorded values is patent US20250027068.
